# Test system: MS2 coat protein
# Test Protocol: apparent Kd, MS2 coat protein; higher = weaker binding; RNA-MaP array; FMN 200 µM where present
# Cond: designed as: OFF switch for flavin mononucleotide; no ligand
# cutoff 20 nM applies to apparent Kd; >= gives y, < gives n

Observe how each entry below is paired with its result.
1) AAAAGCAUCCAGUAUCAAAAUACAUGAGGAUCACCCAUGUAGCAGGAUAUCAACGUUCCCGACGGUGAGAAGGGCUAUAUGUUG | n
2) UUGUUCUGAGGAUAUACAUGAGGAUCACCCAUGUGUUUCUGCUUGGUGUCUAGCGAAUGUAGAAGGCUGUUCUC | y
3) AAAUAACCUAGCAAAAUUUCCUAACAUGAGGAUCACCCAUGUAGAAGGCUGUCCUAAAAUAGGACAGAGGAUAUACGUGCUAGG | n
4) GGAUAGGACAGAGGAUAUACGUGCUAGAGGUACUAGCAAAAUUUCCUCACAUGAGGAUCACCCAUGUAGAAGGCUGUCCUAUCG | n
5) GAAUGGGUAGAAGGACAUGAGGAUCACCCAUGUAGUGUGACUAAGGAUAUUAGAGAAGAUUGACGUAAGAAGGUAGAUGUGAGG | y

## Task Hi team, for AAUAACAGAGGAUAUACUAUUUUAUGUGUUUGUUAUUUUAAACAUGAGGAUCACCCAUGUAGAAGGCUGAUUGA , is the recorded apparent Kd at or above 20 nM?
## Result y

## Task Hi team, for AAUGCCAACGAAGGAUAUACAAACAUGAGGAUCACCCAUGUGUCUUUCGUGUAACUGGAAUUCGGGUAGAAGGUCGUUGACAUA , is the recorded apparent Kd at or above 20 nM?
## Result y
